biological target: human CXCR4 receptor (human, UniProt P61073 1-352); experiment: cell-based or functional assay
Sequence (P61073 whole entry): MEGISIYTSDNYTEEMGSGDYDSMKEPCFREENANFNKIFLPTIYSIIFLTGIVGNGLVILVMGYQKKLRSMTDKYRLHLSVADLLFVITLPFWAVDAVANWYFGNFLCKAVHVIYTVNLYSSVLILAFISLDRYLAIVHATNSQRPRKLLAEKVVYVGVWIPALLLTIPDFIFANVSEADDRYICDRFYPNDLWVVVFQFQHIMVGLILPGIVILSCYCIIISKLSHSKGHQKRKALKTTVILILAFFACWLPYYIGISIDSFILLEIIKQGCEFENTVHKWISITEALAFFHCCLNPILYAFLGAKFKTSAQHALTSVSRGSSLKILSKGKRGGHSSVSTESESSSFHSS
readout_kind: % of inhibition of [^35S]GTPγS binding stimulated by SDF-1 (100 nM) (%)
Entry rule: numbers only, all in %.

Consider the following illustrative entries.
binder	meas_value
humanized antibody Hz515H7 VH1 D76N VL2.3 (antibody, human IgG1, kappa, V domains shown, human IgG1/kappa format; also called hz515H7VL2.3) VH: EVQLVESGGGLVQPGRSLRLSCTASGFTFTDNYMSWVRQAPGKGLEWVGFIRNKANGYTTEYAASVKGRFTISRDNSKSIAYLQMNSLKTEDTAVYYCARDVGSNYFDYWGQGTLVTVSS VL: DIVMTQSPDSLAVSLGERATMSCKSSQSLFNSRTRKNYLAWYQQKPGQPPKLLIYWASARDSGVPDRFTGSGSETYFTLTISSLQAEDLAVYYCMQSFNLRTFGQGTKVEIKR	58
humanized antibody Hz515H7 VH1 D76N VL2.2 (antibody, human IgG1, kappa, V domains shown, human IgG1/kappa format; also called hz515H7VL2.2) VH: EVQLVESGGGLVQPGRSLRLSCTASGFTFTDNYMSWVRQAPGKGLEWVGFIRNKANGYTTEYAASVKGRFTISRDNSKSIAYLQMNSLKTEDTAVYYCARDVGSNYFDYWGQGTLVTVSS VL: DIVMTQSPDSLAVSLGERATMSCKSSQSLFNSRTRKNYLAWYQQKPGQPPKLLIYWASARDSGVPDRFTGSGSETYFTLTISRVQAEDVAVYYCMQSFNLRTFGQGTKVEIKR	66

For the binder humanized antibody Hz515H7 VH1 D76N VL2.1 (antibody, human IgG1, kappa, V domains shown, human IgG1/kappa format; also called hz515H7VL2.1) VH: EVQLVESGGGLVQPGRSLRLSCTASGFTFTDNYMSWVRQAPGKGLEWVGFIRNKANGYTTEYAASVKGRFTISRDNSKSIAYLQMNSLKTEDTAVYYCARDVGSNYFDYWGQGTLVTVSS VL: DIVMTQSPDSLAVSLGERATMSCKSSQSLFNSRTRKNYLAWYQQKPGQPPKLLIYWASARDSGVPDRFSGSGSETYFTLTISRVQAEDLAVYYCMQSFNLRTFGQGTKVEIKR , give its measured % of inhibition of [^35S]GTPγS binding stimulated by SDF-1 (100 nM) value.
69

For the binder humanized antibody Hz515H7 VH1 D76N VL2 (antibody, human IgG1, kappa, V domains shown, human IgG1/kappa format; Biotinylated in the IHC study; also called hz515H7VL2; hz515H7 VH D76N VL2) VH: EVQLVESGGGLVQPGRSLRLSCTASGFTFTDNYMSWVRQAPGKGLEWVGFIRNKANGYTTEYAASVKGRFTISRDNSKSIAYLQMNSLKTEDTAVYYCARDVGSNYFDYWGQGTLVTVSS VL: DIVMTQSPSSLAVSLGERATMSCKSSQSLFNSRTRKNYLAWYQQKPGQSPKLLIYWASARDSGVPARFTGSGSETYFTLTISRVQAEDLAVYYCMQSFNLRTFGQGTKVEIKR , give its measured % of inhibition of [^35S]GTPγS binding stimulated by SDF-1 (100 nM) value.
86
